Origin of the recorded values: patent US11439707B2

Test: absorption spectrum (maximum absorption wavelength, molar extinction coefficient)
Format: physicochemical
Give measured maximum absorption wavelength for each item. Keep answers brief.
Numbers only; they are read as nm.

Input: Reported maximum absorption wavelength for COc1c(NCCCC(=O)O)c2c(=O)cc(OC)c3c4c(OC)cc(=O)c5c(O)c(NCCCC(=O)O)c6c(c(c1CC(C)=C6)c23)c54 [HC-8b] : what is it?
Output: 622

Input: Reported maximum absorption wavelength for COCCOCCOCCOCCOCCOCCOC(=O)C1CCC(Nc2c3c4c5c(c(OC)c(=O)c6c(NC7CCC(C(=O)OCCOCCOCCOCCOCCOCCOC)CC7)cc(OC)c(c7c(OC)cc(O)c(c2=O)c74)c65)C(C(C)=O)C(C)=C3)CC1 (stereo not shown) [HB-14d-PEG6] : what is it?
Output: 630

Input: Reported maximum absorption wavelength for COc1c2c3c4c(c(NCC(=O)O)c(=O)c5c(O)cc(OC)c(c6c(OC)cc(NCCCC(=O)O)c(c1=O)c63)c54)C=C(C)C2C(C)=O (stereo not shown) [HB-43d] : what is it?
Output: 623

Input: Reported maximum absorption wavelength for COc1c2c3c4c(c(NCc5cccc[n+]5CCCC(=O)O)c(=O)c5c(O)cc(OC)c(c6c(OC)cc(NCc7cccc[n+]7CCCC(=O)O)c(c1=O)c63)c54)C=C(C)C2C(C)=O (stereo not shown) [HB-38d-N—COOH] : what is it?
Output: 626

Input: Reported maximum absorption wavelength for COc1c(O)c2c(=O)cc(OC)c3c4c(OC)cc(=O)c5c(NC6CCCC(C(=O)O)C6)c(NC6CCCC(C(=O)O)C6)c6c(c(c1C(C(C)=O)C(C)=C6)c23)c54 (stereo not shown) [HB-15a] : what is it?
Output: 625

Input: Reported maximum absorption wavelength for CCNc1c2c3c4c(c(OC)c(=O)c5c(NC6CCCC6)cc(OC)c(c6c(OC)cc(O)c(c1=O)c63)c54)C(C(C)=O)C(C)=C2 (stereo not shown) [HB-44d] : what is it?
Output: 622

Input: Reported maximum absorption wavelength for COc1c(O)c2c(=O)cc(OC)c3c4c(OC)cc(=O)c5c(NCC6CCC(C(=O)OCC[N+](C)(C)C)CC6)c(NCC6CCC(C(=O)OCC[N+](C)(C)C)CC6)c6c(c(c1CC(C)=C6)c23)c54 (stereo not shown) [HC-13a-C2-N^+] : what is it?
Output: 622

Input: Reported maximum absorption wavelength for COc1c(O)c2c(=O)cc(OC)c3c4c(OC)cc(=O)c5c(NC(CCC(=O)O)C(=O)O)c(NC(CCC(=O)O)C(=O)O)c6c(c(c1C(C(C)=O)C(C)=C6)c23)c54 (stereo not shown) [HB-28a] : what is it?
Output: 621

Input: Reported maximum absorption wavelength for COCCOCCOCCOCCOCCOCCOCCOCCOCCOCCOCCOCCOCCC(=O)OCCNc1c2c3c4c(c(OC)c(=O)c5c(O)cc(OC)c(c6c(OC)cc(NCCOC(=O)CCOCCOCCOCCOCCOCCOCCOCCOCCOCCOCCOCCOCCOC)c(c1=O)c63)c54)C(C(C)=O)C(C)=C2 (stereo not shown) [HB-2c-PEG12] : what is it?
Output: 626

Input: Reported maximum absorption wavelength for COc1c2c3c4c(c(NCC5CCC(C(=O)NCCCCCC[P+](c6ccccc6)(c6ccccc6)c6ccccc6)CC5)c(=O)c5c(NCC6CCC(C(=O)NCCCCCC[P+](c7ccccc7)(c7ccccc7)c7ccccc7)CC6)cc(OC)c(c6c(OC)cc(O)c(c1=O)c63)c54)C=C(C)C2 (stereo not shown) [HC-13c-NH—C6-PPh3+] : what is it?
Output: 632
